Data provenance: patent US8642612B2

IC50 values by entry
# targetOfAssay: rat α3β4 nAChRs (Rattus norvegicus, UniProt P04757+P12392)
# Construct: expressed in transfected cells; the efflux text says only stably transfected cells
# Sequence (P04757 26-499): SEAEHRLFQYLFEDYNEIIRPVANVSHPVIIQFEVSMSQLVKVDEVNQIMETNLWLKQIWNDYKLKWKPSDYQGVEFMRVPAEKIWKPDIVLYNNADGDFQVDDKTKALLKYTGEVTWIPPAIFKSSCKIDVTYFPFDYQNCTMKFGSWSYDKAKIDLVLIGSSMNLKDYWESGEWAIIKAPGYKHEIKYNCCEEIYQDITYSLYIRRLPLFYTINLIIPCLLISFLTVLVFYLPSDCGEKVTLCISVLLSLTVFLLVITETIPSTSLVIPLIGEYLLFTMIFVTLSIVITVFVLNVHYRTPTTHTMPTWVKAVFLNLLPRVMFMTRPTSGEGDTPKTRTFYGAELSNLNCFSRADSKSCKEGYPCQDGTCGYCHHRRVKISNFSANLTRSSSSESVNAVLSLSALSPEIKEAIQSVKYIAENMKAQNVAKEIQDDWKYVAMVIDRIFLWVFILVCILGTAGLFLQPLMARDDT
# Sequence (P12392 21-495): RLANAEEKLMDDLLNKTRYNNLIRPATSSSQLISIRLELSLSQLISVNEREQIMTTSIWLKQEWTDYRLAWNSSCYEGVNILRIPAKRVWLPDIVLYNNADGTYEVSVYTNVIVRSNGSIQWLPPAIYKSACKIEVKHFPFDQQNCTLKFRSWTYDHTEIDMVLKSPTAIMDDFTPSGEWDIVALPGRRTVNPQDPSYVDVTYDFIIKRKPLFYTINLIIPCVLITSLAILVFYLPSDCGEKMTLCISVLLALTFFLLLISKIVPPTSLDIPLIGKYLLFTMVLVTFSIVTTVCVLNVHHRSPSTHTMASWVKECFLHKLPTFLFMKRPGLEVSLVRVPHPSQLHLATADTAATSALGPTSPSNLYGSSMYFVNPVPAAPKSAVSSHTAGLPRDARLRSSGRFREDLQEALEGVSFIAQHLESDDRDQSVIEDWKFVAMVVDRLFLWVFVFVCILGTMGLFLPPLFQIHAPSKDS
# experimentDescription: Inhibition of nicotine-stimulated 86Rb+ efflux, cells expressing rat α3β4 nAChRs
# Format: cell-based
# details: 10 min pretreatment before nicotine; read-out: Desensitization Potency (IC50(D,10 min), nM) α3β4
Entry rule: numbers only, all in nM.

structure	IC50 [nM]
CN1CCC[C@H]1COc1cncc(C#CCNC(=O)OC(C)(C)C)c1	6900

Write down IC50 measured for item CNc1ccccc1C(=O)OCC#Cc1cncc(OC[C@@H]2CCN2)c1 6000

Please supply the value of reported IC50 for the item CN1CCC[C@H]1COc1cncc(C#CCCCCO)c1 2500

Respond only with IC50 recorded for CCCCC#Cc1cncc(OC[C@@H]2CCCN2C)c1 3300

Consider the molecule CN1CCC[C@H]1COc1cncc(C#CCCCCBr)c1 and give its recorded IC50. 2300

Specify IC50 for CN1CCC[C@H]1COc1cncc(C#Cc2ccccc2)c1 and stop. 5300
